# System: ncRNAs (SEQ ID NO 28-89)
# assay: ncRNA arrays of melanocytes, keratinocytes, normal skin, melanoma cell lines and patient samples
# Set-up: species or system human
# condition.description: melanoma patient 21 sample compared to normal skin
property: ncRNA array expression, patient 21
Answer field: number only, no words.

Solved entries:
Q: # get_value(readout='ncRNA array expression, patient 21', item= SEQ ID NO 69 (AGAGTTCGCACTGGGAAGAGTTAAAAAATAAACATTTACAAGGACGAGGAAAGCGGCCCC; listed as DNA, chemistry not given here; listed as Homo sapiens) )
Result: −1.5966

Q: Same question for SEQ ID NO 35 (GTTTCCATTGAAGAATATTACGCTCGGGGACAAGCCAGGTGCACGACCAAAAATTTAAAA; DNA, backbone and methylation of C not given here; listed as Homo sapiens) please.
Result: 2.618

// switching to the query substance
Q: # get_value(readout='ncRNA array expression, patient 21', item= SEQ ID NO 37 (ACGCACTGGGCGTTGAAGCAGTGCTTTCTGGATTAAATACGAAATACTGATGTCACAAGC; DNA, backbone and methylation of C not given here; listed as Homo sapiens) )
Result: 2.575
